System: 786-O
Assay: GI50, drug alone; higher = less potent
Conditions: treatment: drug alone; 5 days
List of GI50, drug alone values.
testReadout: GI50, drug alone (nM)

• O=C(NOCC(O)CO)c1cc(Br)c(F)c(F)c1Nc1ccc(I)cc1F (stereo unspecified) = 448
• Oc1cccc(-c2nc(N3CCOCC3)c3oc4ncccc4c3n2)c1 = 355
• C=CC(=O)Nc1cccc(Oc2nc(Nc3ccc(N4CCN(C)CC4)cc3)ncc2Cl)c1 = 1450
• Nc1cccc2c1C(=O)N(C1CCC(=O)NC1=O)C2=O (stereo unspecified) [Pomalidomide] = 8.88
• CCS(=O)(=O)Nc1ccc2c(c1)/C(=C(/Nc1ccc(CN3CCCCC3)cc1)c1ccccc1)C(=O)N2 = 63.9
• CCc1cccc(CC)c1NC(=O)N1Cc2[nH]nc(NC(=O)c3ccc(N4CCN(C)CC4)cc3)c2C1 = 915
• c1ccc2c(-c3cnn4cc(-c5ccc(N6CCNCC6)cc5)cnc34)ccnc2c1 = 8260
